- system name: UniProt P29372
- Sequence (P29372 whole entry): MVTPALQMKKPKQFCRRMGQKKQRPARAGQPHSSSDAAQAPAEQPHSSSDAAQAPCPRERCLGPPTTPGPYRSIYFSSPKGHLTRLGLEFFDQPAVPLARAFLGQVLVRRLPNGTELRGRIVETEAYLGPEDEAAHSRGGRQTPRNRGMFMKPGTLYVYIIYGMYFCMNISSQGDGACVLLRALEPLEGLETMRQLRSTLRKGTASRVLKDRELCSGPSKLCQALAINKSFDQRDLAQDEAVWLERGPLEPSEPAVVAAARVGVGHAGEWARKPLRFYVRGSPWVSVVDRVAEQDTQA
- study conditions: Compound Concentration 10.0 uM, Hit No;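 note: enzyme assay where MPG cuts a quenched duplex DNA oligonucleotide probe, paired with APE1 for strand incision and turnover, read as fluorescence at 594 nm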
- Description: Inhibition of MPG by quantifying inhibition of MPG-mediated cleavage and dissociation of quenched duplex DNA oligonucleotides, measured as fluorescence at 594 nm. To generate a functional strand incision and increase turn-over this assay is coupled to APE1.
This section presents compounds with their documented inhibition values.
measure name: inhibition (%)

1. Cc1ccc(C(C)(O)c2nc3ccccc3s2)c(C)c1 (configuration not stated) : 10.5
2. Cc1c(F)cccc1[C@H]1COC(N)=N1 : 12.2
3. Cn1ncnc1COc1nn2c(-c3cc(F)ccc3F)nnc2cc1C(C)(C)C : -8.96
4. CCC(=N\O)/C(C)=C/c1ccc(F)cc1 : 12.6
5. Cc1nn(C)c2nc(NNC(=O)Nc3cc(Cl)nc(Cl)c3)cc(C(C)C)c12 : -8
6. O=C(Nc1ccc(Cl)nc1)c1ccc(Cl)cc1 : 18.7
7. COC(c1ccccc1)(c1ccccc1)[C@H](Oc1nc(C)cc(C)n1)C(=O)O : 4.85
8. CC(C)(O)c1ccc2c(c1)ncn2-c1cccc(-c2ccccc2C#N)c1 : 3.49
9. N#Cc1cccc(-c2nc(-c3cccnc3)no2)c1 : -9.43
10. NCCc1c[nH]c2ccc(C(N)=O)cc12 : -1.86
11. CCOC(=O)c1ncn2c1CN(C)C(=O)c1cc(F)ccc1-2 : -3.91
12. Cc1cc([C@@H](C)Nc2cccc(-c3cc(C)c(C(=O)N[C@@H](C)C(=O)O)c(C)c3)c2)ccc1Cl : 24.6
13. CN1CCN2c3ccccc3Cc3ccccc3C2C1 (configuration not stated) : 9.97
14. COc1ccc(C2(O)OC(=O)C(c3ccc4c(c3)OCO4)=C2Cc2cc(OC)c(OC)c(OC)c2)cc1 (configuration not stated) : 13.2
15. CC#C[C@@H](CC(=O)O)c1ccc(OCc2cccc(-c3ccc(C(F)(F)F)cc3)c2)cc1 : 28.7
16. Cn1nc(C(=O)NCc2ccc(C(=O)O)cc2)cc1-c1ccc2[nH]ccc2c1 : 115
17. CCc1cc(C(C)=O)c(O)cc1OCCCCCC(C)(C)c1nn[nH]n1 : 13
18. CCCN1CCO[C@H]2c3cc(O)ccc3OC[C@@H]21 : 3.27
19. FC(F)(F)c1cccc(-c2noc(-c3cc(-c4ccccc4)c(C(F)(F)F)s3)n2)c1 : -0.823
20. CCOC(=O)c1c(C)[nH]c2ccc3c(c12)CN1CCc2cc(OC)ccc2C1O3 (configuration not stated) : 18.6
21. CC(C)C[C@@H](C(=O)N[C@@H](Cc1ccc(OCc2ccccc2)cc1)C(=O)NC(C)(C)C)N(C)Cc1ccc(C(C)(C)C)cc1 : 6.32
22. O=C1NCCc2c(OCCCCN3CCCCC3)cccc21 : -7.35
23. O=C(O)CC1CCC2(CC1)CCN(c1cc(OC(F)(F)F)ccc1Cl)CC2 : 14.1
24. Cc1cc(NC(=O)NCCN2CCC(O)(Cc3ccccc3)CC2)c2ccccc2n1 : -4.68
25. CCC(=O)NCC[C@@H]1CCc2ccc3c(c21)CCO3 : 4.81
26. CCc1nc2c(o1)CC(c1ccc(C)cc1C)CC2=O (configuration not stated) : 23.6
27. COc1c(C(=O)/C=C/c2ccccc2)c(O)c(OC)c2occc12 : 7.88
28. C[C@@H](Cn1c(=O)[nH]/c(=N\c2ccc(Oc3ccccn3)cc2)n(Cc2ccc(Cl)cc2)c1=O)C(=O)O : 14.7
29. CCc1nc2c(C)cc(C)nc2[nH]1 : 5.35
30. Cc1c(C2=CCN(C(=O)N(C)C(C)C)CC2)nnn1-c1cccnc1F : -1.32
31. COc1ccccc1C(=O)Nc1cccc(NC(=O)c2cccc(C)c2)c1 : 18.5
32. O=C(O)CC/C=C\C[C@@H]1CO[C@H](c2ccccc2Cl)O[C@@H]1c1ccccc1O : 4.5
33. COc1ccc(/C=C/CCCCOc2ccc(C(=O)c3cccc(C(=O)O)c3)cc2CCC(=O)O)cc1 : 15.9
34. O=c1ccn([C@@H]2O[C@H](COP(=O)(O)OP(=O)(O)OP(=O)(O)O)[C@@H](O)[C@H]2O)c(=O)[nH]1 : -2.4
35. CCOc1ccccc1C(=O)NCC1(N2CCN(CC)CC2)CCCCC1 : -0.78
36. COC(=O)C1=C(C)NC(C)=C(C(=O)OCCCN2CCC(c3ccccc3)(c3ccccc3)CC2)[C@H]1c1cccc([N+](=O)[O-])c1 : -9.35
37. CCc1nnc(NS(=O)(=O)c2ccc(NC(=S)NC(=O)/C=C/c3ccc(F)cc3)cc2)s1 : 31.8
38. CCCNC(=O)c1nnc2c(-c3c(F)cccc3OC)cccc2c1N : 12.4
39. OCc1cc(C(O)CNCCCCCCOCCCCc2ccccc2)ccc1O (configuration not stated) : 0.951
40. Cc1ccccc1C(=O)Nc1ccc(C(=O)N2CCCC(N(C)C)c3ccccc32)cc1 (configuration not stated) : 11.6
41. O=C(NCc1cccnc1OCC(F)(F)F)c1cncc(-c2ccc(Cl)cc2)c1 : 2
42. O=C(Nc1ccccc1Br)N[C@@H]1CCN(c2ccc(C(F)(F)F)cn2)C1 : 35.3
